Tested on: RPMI-8226 leukemia
experimentNotes: NCI tumour cell line growth inhibition, 48 h

# molecule, unitAnnotation, operatorSymbol, TGI
records = [
    ("O=C1C(=C([O-])c2ccccc2)C(=O)c2ccccc21.O=C1C(=C([O-])c2ccccc2)C(=O)c2ccccc21.[Mn+2]", "µM", ">", 100),
    ("CCC/C(Cl)=N/OC(=O)Nc1cc(C(F)(F)F)ccc1OC", "µM", "=", 6.05),
    ("Cc1ccc(OCC2OC(n3cnc4nc(Nc5ccc(Cl)c(Cl)c5)nc(Cl)c43)CC2Oc2ccc(C)cc2)cc1 (centres undefined)", "µM", ">", 100),
    ("COc1ccc2nc3c([N+](=O)[O-])ccc4c3c(c2c1)NCCN4CCN(C)C", "µM", "=", 4.62),
    ("Cc1ccc(NC(=O)CC/C(CC(=O)C(C)(C)C)=N\\NC(=O)C[n+]2ccccc2)cc1C", "µM", ">", 100),
    ("CC(C)(C)CC(C)(C)c1ccc(O)c(Cc2ccc(Cl)cc2Cl)c1", "µM", "=", 3.66),
    ("CCn1c2ccccc2c(=O)c2c(OC)ccc(OC)c21", "µM", ">", 100),
    ("CC(=O)NC(Cc1ccccc1)NC(=O)O (centres undefined)", "µM", ">", 100),
    ("O=C(c1ccc(C(F)(F)F)c(Cl)c1)N(Cc1ccc(Cl)cc1)c1ccc(-c2cc(C(F)(F)F)[nH]n2)c(O)c1", "µM", "=", 2.23),
]

###

Test system: LOX IMVI melanoma
experimentNotes: NCI tumour cell line growth inhibition, 48 h
Each entry below carries its recorded GI50.
observedProperty: GI50

# molecule, observedProperty, observed
records = [
    ("COC(=O)[C@]12CC[C@@H](C)[C@H](C)[C@@H]1C1=CC[C@@H]3[C@@]4(C)C[C@@H](OC(=O)/C=C/c5ccccc5)[C@H](O)[C@@](C)(CO)[C@@H]4[C@H](O)C[C@@]3(C)[C@]1(C)CC2", "GI50", "1690 nM"),
    ("O=c1c2ccccc2c(/C=N\\NC2=NCCN2)c2oc3ccccc3n12", "GI50", "13200 nM"),
    ("N#CC1=C(N)NC(=S)NC12Nc1ccccc1S2 (stereo not drawn)", "GI50", "17000 nM"),
    ("COC(=O)c1cc2oc(/C=C3/SC(=S)N(N)C3=O)cc2n1Cc1ccccc1", "GI50", "2610 nM"),
    ("O=C1CC(c2ccccc2)Cc2nc3ccc(Br)cc3cc21 (stereo not drawn)", "GI50", "746 nM"),
    ("COc1ccc(CCN(CC(=O)N(CC(N)=O)C2CCC[C@@H]2OCc2ccccc2)C(=O)CN(C(=O)CN(CCc2ccc(Cl)cc2)C(=O)CN(C(=O)CN(C)Cc2ccccc2F)[C@H](C)C2CCCCC2)[C@H](C)C2CCCCC2)cc1OC (stereo partly drawn)", "GI50", "1080 nM"),
    ("COc1cc([N+](=O)[O-])c(OC)cc1-c1nc2sc(C)cn2c1/C(N)=N/C(=N)N", "GI50", "30400 nM"),
    ("N#Cc1c(NC(=O)c2ccc(F)cc2)sc2c1CCCC2", "GI50", "> 25000 nM"),
]

###

Measured TGI of individual entries
System: T-47D breast
experimentNotes: NCI tumour cell line growth inhibition, 48 h
observedProperty: TGI

# compound, observedProperty, observed
rows = [
    ("Cn1c(=O)c2nc3c(=O)n(C)c(=O)n(CC(N)=O)c3nc2n(C)c1=O", "TGI", "> 100 µM"),
    ("COC(=O)c1cc(=O)n(-c2ccc3nn(C)nc3c2)cc1C(=O)OC", "TGI", "> 100 µM"),
    ("OC[C@H]1NC[C@@H](O)[C@@H](O)[C@H]1O", "TGI", "> 100 µM"),
    ("NC(=S)N/N=C1\\c2ccccc2-c2c(F)c(F)c(F)c(F)c21", "TGI", "5.08 µM"),
    ("COc1ccc2c(=O)cc(-c3ccc(OC)c(OC)c3OC)oc2c1", "TGI", "> 100 µM"),
    ("COC(=O)c1ccccc1CC1Cc2cc3c(cc2C1=O)CCC3 (stereo not drawn)", "TGI", "69.9 µM"),
    ("CC1C2CC(CC2(C)O)C1(C)C (stereo not drawn)", "TGI", "> 100 µM"),
    ("CC(C)(c1ccccc1)c1cc(O)c(C(C)(C)c2ccccc2)cc1O", "TGI", "12.7 µM"),
    ("CNC1Cc2c[nH]c3cccc(c23)C12C=C(C)C(=O)O2 (stereo not drawn)", "TGI", "> 100 µM"),
    ("O=C(C=P(c1ccccc1)(c1ccccc1)c1ccccc1)CCl", "TGI", "2.99 µM"),
    ("Cn1cc(C2=C(c3cn(-c4ccccc4)c4ccccc34)C(=O)NC2=O)c2ccccc21", "TGI", "> 25 µM"),
    ("C=CCC1(Sc2ccccn2)Sc2ccc3ccccc3c2-c2c(ccc3ccccc23)S1", "TGI", "> 100 µM"),
    ("N#CC1=C(N)NC(=S)NC12Nc1ccccc1S2 (stereo not drawn)", "TGI", "> 100 µM"),
    ("C#CC(=O)Nc1cccc2c1cc(C)n2-c1nc2c(c(NCc3ccccc3)n1)CCCC2", "TGI", "3.33 µM"),
    ("CCOC(=O)C1(C/C=C/CCl)CCCC1=O (stereo not drawn)", "TGI", "51.3 µM"),
    ("COc1cc(/C=N/c2nc3cc4sc(/N=C/c5cc(OC)c(OC)c(OC)c5)nc4cc3s2)cc(OC)c1OC", "TGI", "> 100 µM"),
    ("CON(C)C(=O)[C@H]1C[C@@]1(C)CO", "TGI", "> 100 µM"),
    ("CC(=O)OCC1OC(c2c(OC(C)=O)cc(C)c3c(=O)cc(/C(C(C)=O)=C(\\C)O)oc23)C(OC(C)=O)C(OC(C)=O)C1OC(C)=O (stereo not drawn)", "TGI", "> 100 µM"),
]

Hey, just so you know, these numbers are from PubChem BioAssay (NCI).
